For each record, write down the corresponding IC50.
molecular target: Transcription initiation factor TFIID subunit 1 (Homo sapiens, UniProt P21675); assay: Inhibition of recombinant human N-terminal His6-FLAG-tagged TAF1 bromodomain 2 (unknown origin) expressed in Rosetta2 (DE3) pLysS cells after 60 mins by TR-FRET assay; type: cell-based
Sequence (P21675 whole entry): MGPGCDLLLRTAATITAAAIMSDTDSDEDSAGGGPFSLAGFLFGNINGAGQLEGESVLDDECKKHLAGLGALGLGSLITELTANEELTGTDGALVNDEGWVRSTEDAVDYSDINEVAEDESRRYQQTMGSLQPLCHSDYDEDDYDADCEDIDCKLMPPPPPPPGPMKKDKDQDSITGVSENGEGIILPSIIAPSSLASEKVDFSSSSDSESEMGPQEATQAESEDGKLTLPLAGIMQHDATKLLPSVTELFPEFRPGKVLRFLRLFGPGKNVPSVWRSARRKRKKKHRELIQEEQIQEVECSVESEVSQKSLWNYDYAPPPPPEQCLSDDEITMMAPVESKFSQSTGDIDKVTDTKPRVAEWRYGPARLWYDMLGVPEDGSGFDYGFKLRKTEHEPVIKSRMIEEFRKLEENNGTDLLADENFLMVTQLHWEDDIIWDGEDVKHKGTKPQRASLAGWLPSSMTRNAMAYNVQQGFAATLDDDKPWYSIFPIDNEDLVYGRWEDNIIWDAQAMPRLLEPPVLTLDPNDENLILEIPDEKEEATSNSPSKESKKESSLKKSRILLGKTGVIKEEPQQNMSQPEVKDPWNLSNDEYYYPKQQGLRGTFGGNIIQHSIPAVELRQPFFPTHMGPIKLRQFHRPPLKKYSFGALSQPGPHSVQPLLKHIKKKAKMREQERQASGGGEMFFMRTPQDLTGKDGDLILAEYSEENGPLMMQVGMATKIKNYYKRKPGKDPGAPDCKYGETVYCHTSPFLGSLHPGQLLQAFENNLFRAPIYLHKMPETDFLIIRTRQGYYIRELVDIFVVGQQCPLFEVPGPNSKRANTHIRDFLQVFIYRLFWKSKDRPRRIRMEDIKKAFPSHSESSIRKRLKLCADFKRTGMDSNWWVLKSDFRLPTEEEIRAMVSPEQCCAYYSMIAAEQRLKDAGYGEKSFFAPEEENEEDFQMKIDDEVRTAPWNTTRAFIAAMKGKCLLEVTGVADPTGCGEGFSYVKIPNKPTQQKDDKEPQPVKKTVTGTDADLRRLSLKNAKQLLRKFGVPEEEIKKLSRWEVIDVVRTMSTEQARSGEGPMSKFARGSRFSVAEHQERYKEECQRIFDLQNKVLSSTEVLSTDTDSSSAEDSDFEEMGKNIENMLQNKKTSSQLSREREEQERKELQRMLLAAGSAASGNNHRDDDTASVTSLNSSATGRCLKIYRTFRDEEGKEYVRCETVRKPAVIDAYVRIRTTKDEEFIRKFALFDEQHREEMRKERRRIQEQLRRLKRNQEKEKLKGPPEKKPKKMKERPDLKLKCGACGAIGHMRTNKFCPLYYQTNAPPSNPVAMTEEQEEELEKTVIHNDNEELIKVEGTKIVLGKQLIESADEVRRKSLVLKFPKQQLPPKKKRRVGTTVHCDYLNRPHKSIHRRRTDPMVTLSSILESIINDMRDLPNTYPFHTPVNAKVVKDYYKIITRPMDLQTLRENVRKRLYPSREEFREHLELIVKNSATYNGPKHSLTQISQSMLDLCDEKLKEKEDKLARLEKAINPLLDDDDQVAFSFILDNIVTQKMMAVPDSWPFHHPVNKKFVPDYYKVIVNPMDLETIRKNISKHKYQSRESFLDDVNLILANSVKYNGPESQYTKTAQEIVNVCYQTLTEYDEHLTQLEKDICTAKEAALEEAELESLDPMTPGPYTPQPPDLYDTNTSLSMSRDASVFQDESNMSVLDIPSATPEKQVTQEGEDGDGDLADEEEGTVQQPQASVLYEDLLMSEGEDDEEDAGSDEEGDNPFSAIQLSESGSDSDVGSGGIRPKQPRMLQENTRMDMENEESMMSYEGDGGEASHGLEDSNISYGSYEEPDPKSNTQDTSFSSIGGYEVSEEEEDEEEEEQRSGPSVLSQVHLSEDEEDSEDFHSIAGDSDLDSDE
Provide only the numeric value, understood in nM.

Q. For Transcription initiation factor TFIID subunit 1 (Homo sapiens, UniProt P21675), give the measured IC50 of the entry CC(c1ccccc1)N1CCC(N(C)C(=O)c2cn(C)c(=O)c3[nH]ccc23)CC1 (racemic)
A. 3600

Q. # assay system Transcription initiation factor TFIID subunit 1 (Homo sapiens, UniProt P21675): give IC50 of `C=CCn1cc(C(=O)N(C)C2CCN(c3cc(-c4ccco4)ncn3)CC2)c2cc[nH]c2c1=O`
A. 2500

Q. With Transcription initiation factor TFIID subunit 1 (Homo sapiens, UniProt P21675) as the test system, provide measured IC50 for this molecule: `C=CCn1cc(C(=O)N(C)C2CCN(c3cc(OC)ncn3)CC2)c2cc[nH]c2c1=O`
A. 2800

---

Biological target: Bromodomain-containing protein 9 (Homo sapiens, UniProt Q9H8M2)
Sequence (Q9H8M2 whole entry): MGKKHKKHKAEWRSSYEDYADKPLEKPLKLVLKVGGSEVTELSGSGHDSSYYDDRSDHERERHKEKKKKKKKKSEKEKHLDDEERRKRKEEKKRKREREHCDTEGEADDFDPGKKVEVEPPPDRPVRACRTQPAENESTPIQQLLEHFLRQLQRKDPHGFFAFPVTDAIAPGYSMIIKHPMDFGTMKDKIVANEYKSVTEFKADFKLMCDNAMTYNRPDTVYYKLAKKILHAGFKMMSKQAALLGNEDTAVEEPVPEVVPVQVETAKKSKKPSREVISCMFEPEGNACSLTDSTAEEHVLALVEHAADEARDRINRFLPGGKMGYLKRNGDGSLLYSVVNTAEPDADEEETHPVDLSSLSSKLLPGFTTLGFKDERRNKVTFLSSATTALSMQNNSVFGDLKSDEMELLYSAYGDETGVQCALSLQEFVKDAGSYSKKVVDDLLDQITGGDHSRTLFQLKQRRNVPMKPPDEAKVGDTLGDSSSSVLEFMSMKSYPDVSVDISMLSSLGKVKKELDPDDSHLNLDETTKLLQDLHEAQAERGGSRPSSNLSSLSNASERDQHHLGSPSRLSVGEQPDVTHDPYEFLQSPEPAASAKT
Assay: Inhibition of recombinant human N-terminal His6-FLAG-tagged BRD9 (unknown origin) expressed in Rosetta2 (DE3) pLysS cells after 60 mins by TR-FRET assay
Assign IC50 to each entry below.

Q. Return IC50 (reported value) for this compound: `C=CCn1cc(C(=O)N(C)C2CCN(c3cc(-n4cccn4)ncn3)CC2)c2cc[nH]c2c1=O`
A. 6.9 µM

Q. Fill in IC50 for record `C=CCn1cc(C(=O)N(C)C2CCN([C@@H](C)c3ccccc3)CC2)c2cc(C)[nH]c2c1=O`
A. 4.4 µM

Q. Fill in IC50 for record `C=CCn1cc(C(=O)N(C)C2CCN(c3cc(C)nc(C)n3)CC2)c2cc[nH]c2c1=O`
A. 7.6 µM

Q. Quickly give me recorded IC50 for `C=CCn1cc(C(=O)N(C)C2CCN(c3cc(C(C)(C)C)ncn3)CC2)c2cc[nH]c2c1=O`
A. 5.7 µM

Q. Recall and state the measured IC50 for CC(c1ccccc1)N1CCC(N(C)C(=O)c2cn(C)c(=O)c3[nH]ccc23)CC1 (racemic) .
A. 11 µM

Q. Quickly give me recorded IC50 for `C=CCn1cc(C(=O)N(C)C2CCN(c3cc(-c4ccccc4C)ncn3)CC2)c2cc[nH]c2c1=O`
A. 1.7 µM

Q. Please look at this compound and report its IC50: `CN1CCC(NC(=O)c2cn(C)c(=O)c3[nH]ccc23)CC1`
A. 2.4 µM

Q. Provide only the value of recorded IC50 for `C=CCn1cc(C(=O)N(C)C2CCN(c3cc(-c4cccc(OC)c4)ncn3)CC2)c2cc[nH]c2c1=O`
A. 1.6 µM

Q. Please supply the value of reported IC50 for the item `C=CCn1cc(C(=O)N(C)C2CCN(c3cc(C4CC4)ncn3)CC2)c2cc[nH]c2c1=O`
A. 6.1 µM

Q. Return IC50 for the following compound: `C=CCn1cc(C(=O)N(C)C2CCN(c3cc(OC)nc(C)n3)CC2)c2cc[nH]c2c1=O`
A. 5.8 µM

Q. Using known records, supply IC50 for C=CCn1cc(C(=O)N(C)C2CCN(C(C)c3ccccc3)CC2)c2cc[nH]c2c1=O (racemic)
A. > 20 µM

Q. In one line, give reported IC50 of the entry `C=CCn1cc(C(=O)N(C)C2CCN(c3ccncn3)CC2)c2cc[nH]c2c1=O` .
A. 5 µM

Q. Specify reported IC50 for the compound shown: `C=CCn1cc(C(=O)N(C)C2CCN([C@H](C)c3ccccc3)CC2)c2cc(C)[nH]c2c1=O`
A. 3.5 µM

Q. Determine from records and report IC50 for `C=CCn1cc(C(=O)N(C)C2CCN(c3cc(OC)ncn3)CC2)c2cc[nH]c2c1=O`
A. 8.5 µM

Q. Identify IC50 associated with the compound `C=CCn1cc(C(=O)N(C)C2CCN(c3cc(-c4ccccc4OC)ncn3)CC2)c2cc[nH]c2c1=O`
A. 2.6 µM

Q. Entry `C=CCn1cc(C(=O)N(C)C2CCN(c3cc(-c4ccco4)ncn3)CC2)c2cc[nH]c2c1=O` needs its IC50 filled in; supply it.
A. 3.3 µM

Q. Please look at this compound and report its IC50: `CC(C)N1CCC(N(C)C(=O)c2cn(C)c(=O)c3[nH]ccc23)CC1`
A. 17.8 µM

Q. Quickly give me recorded IC50 for `C=CCn1cc(C(=O)N(C)C2CCN(c3cc(-c4ccccc4F)ncn3)CC2)c2cc[nH]c2c1=O`
A. 1.5 µM
